Give measured viability at 48 h, 3 µM for each item. Keep answers brief.
PROTOCOL: in vitro
EXPERIMENTAL_CONDITIONS: human, HepG2-A16-CD81EGFP cells, uninfected
Give bare numbers, in %.

Recorded results for 8 compounds are shown here.
COMPOUND: Oc1ccc(C2NCc3ccccc3-n3cccc32)cc1Cl (stereo not shown)
ENDPOINT_UNIT: %
viability at 48 h, 3 µM: 90
//
COMPOUND: Cc1ccc(C)c(/N=N/c2nc3ccccc3n2C)c1
ENDPOINT_UNIT: %
viability at 48 h, 3 µM: 88
//
COMPOUND: COCC(C)n1c(C)cc(C(=O)CSc2nnc(Nc3ccccc3F)s2)c1C (stereo not shown)
ENDPOINT_UNIT: %
viability at 48 h, 3 µM: 101
//
COMPOUND: O=C(NC(c1ccc(Cl)cc1)c1cc(Cl)c2cccnc2c1O)c1cccnc1 (stereo not shown)
ENDPOINT_UNIT: %
viability at 48 h, 3 µM: 68
//
COMPOUND: CCCN(CCC)CCCNc1ccc(C(=O)Nc2cccc(OC)c2)cc1[N+](=O)[O-]
ENDPOINT_UNIT: %
viability at 48 h, 3 µM: 104
//
COMPOUND: Cc1ccc(/C=N/Nc2cc(C)nc(NCc3ccccc3)n2)cc1
ENDPOINT_UNIT: %
viability at 48 h, 3 µM: 95
//
COMPOUND: Oc1c2c(nc3ccc(Br)cc13)CCCC2
ENDPOINT_UNIT: %
viability at 48 h, 3 µM: 98
//
COMPOUND: COc1cc(Cl)c(C)cc1NC(C)C(=O)Nc1cc(C(F)(F)F)ccc1N1CCOCC1 (stereo not shown)
ENDPOINT_UNIT: %
viability at 48 h, 3 µM: 94

Items follow; give viability at 48 h, 3 µM for each.
1. Cc1ccccc1Nc1cc(C)c2c(O)cccc2n1
2. CCCn1cc(SCC(=O)NCc2ccco2)c2ccccc21
3. CCCc1cc(=O)oc2cc(C)cc(OC(C)C(=O)NCC(O)c3ccccc3)c12 (stereo not shown)
4. Oc1ccc(-c2nnc(S)n2-c2ccc3c(c2)OCCO3)c(O)c1
5. COc1ccc(-c2ccc3ncc(Nc4ccc(C(N)=O)cc4)n3n2)cc1OC

1: 100; 2: 87; 3: 88; 4: 95; 5: 105

* * *

System: P. falciparum Dd2 Cytb F123L
PROTOCOL: SYBR Green ABS proliferation assay, NCGC00473217 selected clone G08
Type: cell-based, Plasmodium falciparum
EXPERIMENTAL_CONDITIONS: Plasmodium falciparum, DD2, […]; averaged from three independent replicates; top concentration 29 µM; read-out: Average AC50 (Log[M]), NCGC00473217 clone G08 (Cytb F123L) (converted)
Give measured AC50 for each item. Keep answers brief.
Give bare numbers, in M.

Recorded results for 2 compounds are shown here.
COMPOUND: CCCN1C(CC(C)C)=N[S+](=O)([O-])c2cc(NC(=O)c3cn(-c4ccccc4)cn3)ccc21
AC50 / M: 3.56e-06
//
COMPOUND: NS(=O)(=O)c1cc2c(cc1C(F)(F)F)NC(Cc1ccccc1)NS2(=O)=O (stereo not drawn)
AC50 / M: 8.93e-06

Kindly review the next compound as well.
For CC(C)CC1=N[S+](=O)([O-])c2cc(NC(=O)c3cccs3)ccc2N1C , write its AC50. 1.89e-07

This collection of values is drawn from paper PMC7822874.
